ASSAY_TEXT: qHTS assay to identify small molecule agonists of H2AX - cell viability counter screen (AID 1224847); further: nearly all actives have a fitted effect of over 30% in size
RECORDED_CONDITIONS: CHO-K1 viability, CellTiter-Glo luminescence, 3 h; series mostly up to 154 µM
Records with an inconclusive call do not appear. The source made the active and inactive calls. The call rests on the fitted dose curve.
Outcomes: active, inactive

{"COMPOUND": "CC1(C)[C@H]2CC[C@]1(C)[C@H](O)C2", "QUALITATIVE_LABEL": "active"}
{"COMPOUND": "O=c1[nH]cnc2ccccc12", "QUALITATIVE_LABEL": "inactive"}
{"COMPOUND": "CCCC[C@H]1CN(CC2CCOCC2)C(=O)OC12CCN(C1(C)CCN(C(=O)c3c(C)ncnc3C)CC1)CC2", "QUALITATIVE_LABEL": "inactive"}
{"COMPOUND": "CCCCCCCCCCCCC(=O)O", "QUALITATIVE_LABEL": "inactive"}
{"COMPOUND": "OCC1CC2CC1C1CCC(CO)C21 (centres undefined)", "QUALITATIVE_LABEL": "inactive"}
{"COMPOUND": "CC(C)(C)c1cc(O)c(C(C)(C)C)cc1O", "QUALITATIVE_LABEL": "inactive"}
{"COMPOUND": "O=C(Cl)c1ccc([N+](=O)[O-])cc1", "QUALITATIVE_LABEL": "inactive"}
{"COMPOUND": "CCCCCC/C=C/C=O", "QUALITATIVE_LABEL": "inactive"}
{"COMPOUND": "NCc1ccccc1", "QUALITATIVE_LABEL": "inactive"}
{"COMPOUND": "NC1CCN(c2nc3c(cc2F)c(=O)c(C(=O)O)cn3-c2ccc(F)cc2F)C1 (centres undefined)", "QUALITATIVE_LABEL": "inactive"}
{"COMPOUND": "N#CCCNCCC#N", "QUALITATIVE_LABEL": "inactive"}
{"COMPOUND": "CCCC(C)C", "QUALITATIVE_LABEL": "inactive"}
{"COMPOUND": "CCN(CC)CCOC(=O)C1(c2ccccc2)CCCC1", "QUALITATIVE_LABEL": "inactive"}
{"COMPOUND": "Cn1c(NCCN(CCO)CCCc2ccc([N+](=O)[O-])cc2)cc(=O)n(C)c1=O", "QUALITATIVE_LABEL": "inactive"}
{"COMPOUND": "Oc1ccc2c(c1)OCO2", "QUALITATIVE_LABEL": "inactive"}
{"COMPOUND": "CC(=O)[C@@]1(O)CC[C@H]2[C@@H]3C[C@H](C)C4=CC(=O)CC[C@]4(C)[C@H]3CC[C@@]21C", "QUALITATIVE_LABEL": "inactive"}
{"COMPOUND": "O=C(/C=C/c1ccc(O)c(O)c1)O[C@@H]1C[C@](O)(C(=O)O)C[C@@H](O)[C@H]1O", "QUALITATIVE_LABEL": "inactive"}
{"COMPOUND": "S=C(S)NCCNC(=S)S", "QUALITATIVE_LABEL": "inactive"}
{"COMPOUND": "N=C(N=C(N)N)N1CCOCC1", "QUALITATIVE_LABEL": "inactive"}

---

ASSAY_TEXT: qHTS assay to identify small molecule agonists of the estrogen receptor beta (ER-beta) signaling pathway - cell viability counter screen (AID 1259380); further: nearly all actives have a fitted effect of over 30% in size
RECORDED_CONDITIONS: ER-beta-bla HEK293T viability, CellTiter-Glo luminescence, 16 h; series mostly up to 92.4 µM
Inconclusive results are not listed. Activity calls are given as the source filed them. Calls follow the shape of the dose curve; as a rule, active = well fitted cell-killing curve with a large enough effect in the repeat runs; inconclusive = weak or mixed curves, or effect the other way; inactive = flat fitted curve, though single readings scatter.
Outcomes: active, inactive

{"MOLECULE": "CCOC(=S)SSC(=S)OCC", "QUALITATIVE_LABEL": "inactive"}
{"MOLECULE": "Cc1cc(C)c(S(=O)(=O)O)cc1N=Nc1cc(S(=O)(=O)O)c2ccccc2c1O", "QUALITATIVE_LABEL": "inactive"}
{"MOLECULE": "N#CCc1cccc(C(F)(F)F)c1", "QUALITATIVE_LABEL": "inactive"}
{"MOLECULE": "CCCCCCCCC(CO)CCCCCC (stereo not drawn)", "QUALITATIVE_LABEL": "inactive"}
{"MOLECULE": "CCCCOC(=O)c1ccccc1C(=O)OCC(CC)CCCC (stereo not drawn)", "QUALITATIVE_LABEL": "inactive"}
{"MOLECULE": "CC(=O)N(O)CCCCCNC(=O)CCC(=O)N(O)CCCCCNC(=O)CCC(=O)N(O)CCCCCN", "QUALITATIVE_LABEL": "inactive"}
{"MOLECULE": "CC(O)C1CCCCC1 (stereo not drawn)", "QUALITATIVE_LABEL": "inactive"}
{"MOLECULE": "CC(C)(C)C(=O)OCOP(=O)(COCCn1cnc2c(N)ncnc21)OCOC(=O)C(C)(C)C", "QUALITATIVE_LABEL": "active"}
{"MOLECULE": "COC(=O)CSc1cc(N=c2sc(=O)n3n2CCCC3)c(F)cc1Cl", "QUALITATIVE_LABEL": "inactive"}
{"MOLECULE": "CN(C)C/C=C(/c1ccc(Br)cc1)c1cccnc1", "QUALITATIVE_LABEL": "inactive"}
{"MOLECULE": "O=C(O)[C@@H]1[C@H]2C[C@H]3c4[nH]c5ccccc5c4CCN3C[C@@H]2CC[C@@H]1O", "QUALITATIVE_LABEL": "inactive"}
{"MOLECULE": "Cc1ccc(C(=O)C(C)CN2CCCCC2)cc1 (stereo not drawn)", "QUALITATIVE_LABEL": "inactive"}
{"MOLECULE": "CN(C(=O)CCCOc1ccc2[nH]c(=O)ccc2c1)C1CCCCC1", "QUALITATIVE_LABEL": "inactive"}
{"MOLECULE": "CCCCCCCCCC(=O)OCC", "QUALITATIVE_LABEL": "inactive"}
{"MOLECULE": "CCCCCOC(=O)c1ccc(O)cc1", "QUALITATIVE_LABEL": "active"}
{"MOLECULE": "Cc1cc(O)ccc1N", "QUALITATIVE_LABEL": "active"}
{"MOLECULE": "Cc1ccccc1N=Nc1ccc(N=Nc2c(O)ccc3ccccc23)c(C)c1", "QUALITATIVE_LABEL": "inactive"}
{"MOLECULE": "ClC(Cl)(Cl)c1ccc(C(Cl)(Cl)Cl)cc1", "QUALITATIVE_LABEL": "inactive"}
{"MOLECULE": "O=C(O)c1cccc(N(Cc2cccnc2)c2ccc(OC(F)F)c(OC(F)F)c2)c1", "QUALITATIVE_LABEL": "active"}
{"MOLECULE": "Cc1ncsc1CCO", "QUALITATIVE_LABEL": "inactive"}
{"MOLECULE": "CCOc1ccc2[nH]cc(C(=O)NCc3ccccc3)c(=O)c2n1", "QUALITATIVE_LABEL": "inactive"}
{"MOLECULE": "COC(Cc1ccccc1)OC", "QUALITATIVE_LABEL": "inactive"}
{"MOLECULE": "O=C(/C=C/c1ccc(O)c(O)c1)O[C@@H]1C[C@](O)(C(=O)O)C[C@@H](O)[C@H]1O", "QUALITATIVE_LABEL": "inactive"}
{"MOLECULE": "Cc1ccc(C(N)=O)cc1N", "QUALITATIVE_LABEL": "inactive"}
{"MOLECULE": "C=C(C)C(=O)OCCOc1ccccc1", "QUALITATIVE_LABEL": "inactive"}
{"MOLECULE": "CCCOc1ccc2nc(NC(=O)OC)[nH]c2c1", "QUALITATIVE_LABEL": "inactive"}
{"MOLECULE": "CC(C)CCCC(C)CCO (stereo not drawn)", "QUALITATIVE_LABEL": "inactive"}
{"MOLECULE": "NC(N)=N/N=C/c1c(Cl)cccc1Cl", "QUALITATIVE_LABEL": "active"}
{"MOLECULE": "Nc1nc(N)c2nc(CNc3ccc(C(=O)N[C@@H](CCC(=O)O)C(=O)O)cc3)cnc2n1", "QUALITATIVE_LABEL": "inactive"}
{"MOLECULE": "CC(C(=O)O)c1ccc(C(=O)c2ccccc2)s1 (stereo not drawn)", "QUALITATIVE_LABEL": "inactive"}
{"MOLECULE": "CC(=O)/C=C/C1C(C)=CCCC1(C)C (stereo not drawn)", "QUALITATIVE_LABEL": "inactive"}
{"MOLECULE": "O=C(NS(=O)(=O)/C=C/c1cccs1)c1ccc(F)cc1Br", "QUALITATIVE_LABEL": "inactive"}
{"MOLECULE": "Cc1cccc(OCCOc2cccc(C)c2)c1", "QUALITATIVE_LABEL": "inactive"}
{"MOLECULE": "CN1CCC[C@@H]1c1cccnc1", "QUALITATIVE_LABEL": "inactive"}
{"MOLECULE": "c1ccc(OCc2ccc(CCCN3CCOCC3)cc2)cc1", "QUALITATIVE_LABEL": "inactive"}
{"MOLECULE": "O=[N+]([O-])c1cc[n+]([O-])cc1", "QUALITATIVE_LABEL": "active"}
{"MOLECULE": "CCN(CC)CCc1nc(-c2ccccc2)no1", "QUALITATIVE_LABEL": "inactive"}
{"MOLECULE": "CCC(=O)OC(C)(C)C1CC=C(C)CC1 (stereo not drawn)", "QUALITATIVE_LABEL": "inactive"}
{"MOLECULE": "CC1CCc2cc(F)cc3c(=O)c(C(=O)O)cn1c23 (stereo not drawn)", "QUALITATIVE_LABEL": "inactive"}
{"MOLECULE": "C=CC(C)(CCC=C(C)C)OC(=O)c1ccccc1 (stereo not drawn)", "QUALITATIVE_LABEL": "inactive"}
{"MOLECULE": "O=C(Cl)c1c(Cl)cccc1Cl", "QUALITATIVE_LABEL": "inactive"}
{"MOLECULE": "Cc1c(Cn2ccnc2)c2ccccc2n1CCC(=O)O", "QUALITATIVE_LABEL": "inactive"}
{"MOLECULE": "CN1CCN(C2=Nc3ccccc3Sc3ccc(Cl)cc32)CC1", "QUALITATIVE_LABEL": "inactive"}
{"MOLECULE": "Cl/C(=C\\n1cncn1)c1ccc(Cl)cc1Cl", "QUALITATIVE_LABEL": "inactive"}
{"MOLECULE": "CC1=CCC(C(C)C)C=C1 (stereo not drawn)", "QUALITATIVE_LABEL": "inactive"}
{"MOLECULE": "Oc1ccc(C(O)CNCCCCCCNCC(O)c2ccc(O)c(O)c2)cc1O (stereo not drawn)", "QUALITATIVE_LABEL": "inactive"}
{"MOLECULE": "CCCCCCCCN(C)C", "QUALITATIVE_LABEL": "inactive"}
{"MOLECULE": "SC1CCCC1", "QUALITATIVE_LABEL": "inactive"}
